Ref: ChEMBL document CHEMBL1139919

assay: AUC in rat at 5 mg/kg, po or 1 mg/kg, iv; assay type: ADME, organism-based; settings: plasma
measurement_name: AUC (µM·h)
# number only, unit µM·h dropped from output

Enquiry: So what's the measured AUC for this one? CSc1ccc(-c2cnccc2C2CCC(F)(F)CC2C(=O)NCC#N)cc1 (racemic)
Return: 8.6

====

species on record: Oryctolagus cuniculus; experiment: Selectivity for IC50 of new Zealand white […] bone resorption over IC50 rabbit cathepsin K; assay type: functional
Please respond with condition met when measured Ratio IC50 is strictly beneath 20, and with condition not met in all other cases.

Solved cases (4 shown):
{"compound": "CSc1ccc(-c2c[n+]([O-])ccc2C2CCC(F)(F)CC2C(=O)NCC#N)cc1 (racemic)", "category": "condition met"}
{"compound": "CSc1ccc(-c2cnccc2C2CCC(F)(F)CC2C(=O)NCC#N)cc1 (racemic)", "category": "condition met"}
{"compound": "CSc1ccc(-c2c(C3CCC(F)(F)CC3C(=O)NCC#N)cc[nH]c2=O)cc1 (racemic)", "category": "condition met"}
{"compound": "CSc1ccc(-c2nc(C)sc2C2CCC(F)(F)CC2C(=O)NCC#N)cc1 (racemic)", "category": "condition not met"}

Enquiry: Hi there! Is Ratio IC50 for CSc1ccc(-c2ccccc2C2CCC(F)(F)CC2C(=O)NCC#N)cc1 (racemic; form 1) below 20, do you know?
Return: condition not met

====

assay: Half life in rat at 5 mg/kg, po or 1 mg/kg, iv; assay type: ADME, organism-based; conditions: in vivo
measurement_name: half-life (h)
Value expressed in h; do not type the unit.

Enquiry: Give the measured half-life of CSc1ccc(-c2cnccc2C2CCC(F)(F)CC2C(=O)NCC#N)cc1 (racemic) .
Return: 1

====

Biological target: Cathepsin K (Oryctolagus cuniculus)
Sequence (P43236 whole entry): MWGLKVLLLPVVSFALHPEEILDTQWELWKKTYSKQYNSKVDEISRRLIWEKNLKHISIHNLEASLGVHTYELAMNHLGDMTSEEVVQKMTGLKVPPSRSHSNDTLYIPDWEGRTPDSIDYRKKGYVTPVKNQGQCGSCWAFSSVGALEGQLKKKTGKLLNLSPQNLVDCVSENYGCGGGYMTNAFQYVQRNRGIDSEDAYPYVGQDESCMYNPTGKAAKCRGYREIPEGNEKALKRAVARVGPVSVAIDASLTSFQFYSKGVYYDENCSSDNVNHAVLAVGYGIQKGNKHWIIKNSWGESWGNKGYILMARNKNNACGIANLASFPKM
measurement_name: IC50 (nM)
All answers are understood in nM, so give the number only.

{"compound": "CSc1ccc(-c2c(C3CCC(F)(F)CC3C(=O)NCC#N)nnn2Cc2ccccc2)cc1 (racemic)", "target_or_system": "Cathepsin K (Oryctolagus cuniculus)", "IC50 (nM)": 9}
{"compound": "CSc1ccc(-c2c(C3CCC(F)(F)CC3C(=O)NCC#N)cc[nH]c2=O)cc1 (racemic)", "target_or_system": "Cathepsin K (Oryctolagus cuniculus)", "IC50 (nM)": 6}
{"compound": "CSc1ccc(-c2cnccc2C2CCC(F)(F)CC2C(=O)NCC#N)cc1 (racemic)", "target_or_system": "Cathepsin K (Oryctolagus cuniculus)", "IC50 (nM)": 1}
{"compound": "CSc1ccc(-c2cn(C)nc2C2CCC(F)(F)CC2C(=O)NCC#N)cc1 (racemic)", "target_or_system": "Cathepsin K (Oryctolagus cuniculus)", "IC50 (nM)": 0.4}
{"compound": "CSc1ccc(-c2c[n+]([O-])ccc2C2CCC(F)(F)CC2C(=O)NCC#N)cc1 (racemic)", "target_or_system": "Cathepsin K (Oryctolagus cuniculus)", "IC50 (nM)": 5}

Please look at the following compound next.
Enquiry: Looking for the measured IC50 of N#CCNC(=O)C1CC(F)(F)CCC1c1cnccc1-c1ccc(SCF)cc1 (racemic) , can you help?
Return: 2
